Each record here notes measured TGI.
- Test system: SW-620 colon
- assay method text: NCI tumour cell line growth inhibition, 48 h
Output spec: scalar in µM, unitless text.

As a guide, the following entries are already answered.
{"molecule": "OCc1c(-c2cccc3ccccc23)sc(-c2cccc3ccccc23)c1CO", "display unit": "µM", "TGI": 29.2}
{"molecule": "COc1ccccc1NC(=O)c1ccc(/C=C/C(=O)c2nccn2C)cc1", "display unit": "µM", "TGI": 1.22}

Here's the next entry for you.
Record request: TGI value, item COc1cc([C@@H]2c3cc4c(cc3[C@@H](NC(=O)c3cccc([N+](=O)[O-])c3)C3COC(=O)[C@@H]32)OCO4)cc(OC)c1O (some centres undefined)
24.3

* * *

- Test system: NCI/ADR-RES ovarian
- assay method text: NCI tumour cell line growth inhibition, 48 h; in the data active = GI50 below about 0.43 µM; inactive = the rest
The reply should be one of these categories: True for active, False for inactive

Solved cases (5 shown):
{"structure smiles": "COC(=O)[C@@H](C)C[C@H](Cc1ccccc1)NC(=O)c1nc([C@@H](C[C@H](C(C)C)N(C)C(=O)[C@@H](NC(=O)[C@H]2CCCN2C)C(C)C)OC(C)=O)sc1C", "label value": "True"}
{"structure smiles": "CCN1CCN(c2nc(NCCNc3ccnc4cc(Cl)ccc34)c3ccccc3n2)CC1", "label value": "False"}
{"structure smiles": "Clc1cccc(NC=Nc2ccc(-c3nc4ccccc4s3)cc2)c1", "label value": "False"}
{"structure smiles": "N#Cc1c(O)c2c(c(O)c1C#N)C(=O)c1ccccc1C2=O", "label value": "False"}
{"structure smiles": "O=C1c2ccccc2C(=O)c2c1ccc1[nH]c(CCl)nc21", "label value": "False"}

Record lookup: outcome of this test for COc1cc2c(c(OC)c1OC)-c1ccc(NCc3ccccc3)c(=O)cc1[C@@H](NC(C)=O)CC2 ?
False

Record lookup: outcome of this test for COc1cccc(-c2nn(-c3ccccc3)cc2-c2ccnc(NCCCNS(=O)(=O)c3cccc(F)c3)c2)c1 ?
False

* * *

Each record here notes measured GI50.
- System: HOP-92 NSCLC
- assay method text: NCI tumour cell line growth inhibition, 48 h

{"structure smiles": "NS(=O)(=O)c1ccc(-n2nc(-c3ccc(Br)cc3)ccc2=O)cc1", "GI50": "> 10 µM"}
{"structure smiles": "COC(=O)[C@@H](C)C[C@H](Cc1ccccc1)NC(=O)c1nc([C@@H](C[C@H](C(C)C)N(C)C(=O)[C@@H](NC(=O)[C@H]2CCCN2C)C(C)C)OC(C)=O)sc1C", "GI50": "7.33 µM"}
{"structure smiles": "CN(C)CCNc1nc2ccccc2c2[nH]c3ccccc3c12", "GI50": "0.464 µM"}

Here's the next entry for you.
Record request: GI50 value, item CNC(=O)c1cc(Oc2ccc3c(c2)sc2nc(-c4ccc(N)cc4)cn23)ccn1
5.98 µM

* * *

- Tested on: SK-MEL-5 melanoma
- assay method text: NCI tumour cell line growth inhibition, 48 h; in the data active means GI50 below about 0.43 µM; inactive means the rest
The reply should be one of these categories: yes for active, no for inactive

Solved cases (8 shown):
{"molecule": "C[C@@H]1Cc2c([nH]c3ccccc23)[C@@H](c2c(F)cc(/C=C/C(=O)O)cc2F)N1CC(C)(C)F", "study system": "SK-MEL-5 melanoma", "label value": "no"}
{"molecule": "O=C1c2ccccc2C(=O)c2c1ccc1[nH]c(CCl)nc21", "study system": "SK-MEL-5 melanoma", "label value": "no"}
{"molecule": "Cc1c(Cl)cccc1Nc1ncccc1C(=O)O", "study system": "SK-MEL-5 melanoma", "label value": "no"}
{"molecule": "N#Cc1c(O)c2c(c(O)c1C#N)C(=O)c1ccccc1C2=O", "study system": "SK-MEL-5 melanoma", "label value": "yes"}
{"molecule": "CCN1CCN(c2nc(NCCNc3ccnc4cc(Cl)ccc34)c3ccccc3n2)CC1", "study system": "SK-MEL-5 melanoma", "label value": "no"}
{"molecule": "Clc1cccc(NC=Nc2ccc(-c3nc4ccccc4s3)cc2)c1", "study system": "SK-MEL-5 melanoma", "label value": "no"}
{"molecule": "NNC(=O)c1cnn(-c2ccnc3c(C(F)(F)F)cccc23)c1N", "study system": "SK-MEL-5 melanoma", "label value": "no"}
{"molecule": "S=C1NCCN1C1=Nc2ccccc2CO1", "study system": "SK-MEL-5 melanoma", "label value": "no"}

Record lookup: outcome of this test for O=C(/C=C(\[O-])c1ccccc1)CCCCCCC(=O)/C=C(\[O-])c1ccccc1.O=C(/C=C(\[O-])c1ccccc1)CCCCCCC(=O)/C=C(\[O-])c1ccccc1.O=C(/C=C(\[O-])c1ccccc1)CCCCCCC(=O)/C=C(\[O-])c1ccccc1.[La+3].[La+3] ?
no

Record lookup: outcome of this test for COc1ccc(CNC(=O)COc2ccc(/C=N/Nc3nc4ccccc4s3)cc2)cc1 ?
no

Record lookup: outcome of this test for CC1=C(CCCOC(=O)NCCCl)C2=C(C)C3(CC3)[C@@](C)(O)C(=O)C2=C1 ?
no

Record lookup: outcome of this test for COC(=O)c1c2c(c(C)[n+]([O-])c1C)C(=O)C=CC2=O ?
no

Record lookup: outcome of this test for COc1cc([C@@H]2c3cc4c(cc3C[C@H]3COC(=O)[C@@H]32)OCO4)cc(OC)c1OC ?
yes

Record lookup: outcome of this test for O=C1CSC(N2CCN(c3cccc(Cl)c3)CC2)=N1 ?
no

Record lookup: outcome of this test for CN(C)CCNc1nc2ccccc2c2[nH]c3ccccc3c12 ?
no

Record lookup: outcome of this test for COc1cccc(-c2nn(-c3ccccc3)cc2-c2ccnc(NCCCNS(=O)(=O)c3cccc(F)c3)c2)c1 ?
no

Record lookup: outcome of this test for COc1ccc(CN2CCCC(C(=O)c3ccc(C(F)(F)F)cc3)C2)c(O)c1 (stereo not drawn) ?
no

Record lookup: outcome of this test for ClCc1ccccc1CSc1ncnc2nc[nH]c12 ?
no
